These measurements were taken from paper PMC6338552.

target: His6-JNK1α1 (UniProt P45983-2 1-384); experiment: fluorescence polarisation
TMR = 6-carboxytetramethylrhodamine
MEASURED_ATTRIBUTE: Kd (µM)
Respond with the bare value in µM.

Requested read-out: Kd. Entry: {TMR}-RPKRPTTLNLF-OH [TMR-JIPtide]
14
